Where these numbers come from: patent US12502362B2

System: Staphylococcus hominis
Type: cell-based
Protocol conditions: Sh1 (Staphylococcus hominis)
Assay metric: Antibiotic susceptibility

Past entries and their recorded results:
Chemical string	Result
COc1c(N2C[C@@H]3CCCN[C@@H]3C2)c(F)cc2c(=O)c(C(=O)O)cn(C3CC3)c12	R
CCCCCCCCCC(=O)N[C@@H](Cc1c[nH]c2ccccc12)C(=O)N[C@H](CC(N)=O)C(=O)N[C@@H](CC(=O)O)C(=O)N[C@@H]1C(=O)NCC(=O)N[C@@H](CCCN)C(=O)N[C@@H](CC(=O)O)C(=O)N[C@H](C)C(=O)N[C@@H](CC(=O)O)C(=O)NCC(=O)N[C@H](CO)C(=O)N[C@@H]([C@H](C)CC(=O)O)C(=O)N[C@@H](CC(=O)c2ccccc2N)C(=O)O[C@@H]1C	S
C[C@H]1c2cccc(O)c2C(=O)C2=C(O)[C@]3(O)C(=O)C(C(N)=O)=C(O)[C@@H](N(C)C)[C@@H]3[C@@H](O)[C@@H]21	S
CN[C@H](CC(C)C)C(=O)N[C@H]1C(=O)N[C@@H](CC(N)=O)C(=O)N[C@H]2C(=O)N[C@H]3C(=O)N[C@H](C(=O)N[C@H](C(=O)O)c4cc(O)cc(O)c4-c4cc3ccc4O)[C@H](O)c3ccc(c(Cl)c3)Oc3cc2cc(c3O[C@@H]2O[C@H](CO)[C@@H](O)[C@H](O)[C@H]2O[C@H]2C[C@](C)(N)[C@H](O)[C@H](C)O2)Oc2ccc(cc2Cl)[C@H]1O	S
CN(C)c1cc(NC(=O)CNC(C)(C)C)c(O)c2c1C[C@H]1C[C@H]3[C@H](N(C)C)C(O)=C(C(N)=O)C(=O)[C@@]3(O)C(O)=C1C2=O	S

Please examine the following record next.
Request body: readout Antibiotic susceptibility, system Staphylococcus hominis, query "CC(=O)NC[C@H]1CN(c2ccc(N3CCOCC3)c(F)c2)C(=O)O1" . Return the value.
S

====

System: MDR Acinetobacter baumannii
Assay type: cell-based
Protocol conditions: Ab3 (Acinetobacter baumannii)
Assay metric: Antibiotic susceptibility

Compound	Antibiotic susceptibility
NC[C@H]1O[C@H](O[C@H]2[C@H](O)[C@@H](O[C@H]3O[C@H](CO)[C@@H](O)[C@H](N)[C@H]3O)[C@H](N)C[C@@H]2N)[C@H](N)C[C@@H]1O	S
CC1(C)S[C@@H]2[C@H](NC(=O)[C@H](N)c3ccccc3)C(=O)N2[C@H]1C(=O)O	R
CO/N=C(\C(=O)N[C@@H]1C(=O)N2C(C(=O)[O-])=C(C[N+]3(C)CCCC3)CS[C@H]12)c1csc(N)n1 [FEP, Cefepime]	R
C[C@@H](O)[C@H]1C(=O)N2C(C(=O)O)=C(SCCN=CN)C[C@H]12	I
C[C@H]1COc2c(N3CCN(C)CC3)c(F)cc3c(=O)c(C(=O)O)cn1c23	R
CO/N=C(\C(=O)N[C@@H]1C(=O)N2C(C(=O)O)=C(CSc3nc(=O)c(=O)[nH]n3C)CS[C@H]12)c1csc(N)n1	R
Cc1nnc(SCC2=C(C(=O)O)N3C(=O)[C@@H](NC(=O)Cn4cnnn4)[C@H]3SC2)s1	R
CC(C)(O/N=C(\C(=O)N[C@@H]1C(=O)N2C(C(=O)[O-])=C(C[n+]3ccccc3)CS[C@H]12)c1csc(N)n1)C(=O)O	R

Checklist item: Antibiotic susceptibility tested on MDR Acinetobacter baumannii, entry "O=C1CN(/N=C/c2ccc([N+](=O)[O-])o2)C(=O)N1" , value?
R
